# testProtocol: activity coefficient (dimensionless); of the first substance listed, at infinite dilution; xn = mol fraction of the nth substance listed
# measurementContext: 333 K; 101.3 kPa; Liquid; Open tubular Wall-Coated Column Chromatography; x1 = 0
# reported activity coefficient; entries follow
metric: activity coefficient

{"molecule": "CCCCCCC [heptane] + CC(=O)[O-].CCn1cc[n+](C)c1", "recordedValue": 146}
{"molecule": "CCCO [propan-1-ol] + CC(=O)[O-].CCn1cc[n+](C)c1", "recordedValue": 0.07}
{"molecule": "CC(C)(C)O [2-methylpropan-2-ol] + CC(=O)[O-].CCn1cc[n+](C)c1", "recordedValue": 0.18}
{"molecule": "COCCOC [1,2-dimethoxyethane] + CC(=O)[O-].CCn1cc[n+](C)c1", "recordedValue": 3.88}
{"molecule": "CC(C)O [propan-2-ol] + CC(=O)[O-].CCn1cc[n+](C)c1", "recordedValue": 0.11}

Values from the NIST ThermoML archive (doi:10.1016/j.jct.2011.11.005)
